# tested target: JAK2 (a.a. 828-1132) (Homo sapiens)
# Construct: JAK2 (a.a. 828-1132); His tag (N)
# Sequence (O60674 828-1132): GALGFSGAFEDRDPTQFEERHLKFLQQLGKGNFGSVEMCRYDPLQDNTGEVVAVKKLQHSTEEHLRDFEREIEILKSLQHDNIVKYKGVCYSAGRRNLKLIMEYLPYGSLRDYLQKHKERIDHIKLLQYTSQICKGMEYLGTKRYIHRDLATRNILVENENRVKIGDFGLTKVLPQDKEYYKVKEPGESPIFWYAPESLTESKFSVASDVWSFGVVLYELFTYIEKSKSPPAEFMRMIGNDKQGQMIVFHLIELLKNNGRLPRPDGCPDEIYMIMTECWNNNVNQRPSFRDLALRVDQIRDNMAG
# experimental details: In vitro JAK kinase assay (HTRF, phosphorylation of biotinylated peptide), JAK2
# Type: biochemical
# condition parameters: Table F; 1 mM ATP
pIC50: −log10 of the molar value.
Listing: pIC50 of selected molecules
measured endpoint: pIC50

>>> value_observed("CC(C)[C@@H](C)NC(=O)N1CCN([C@H]2C[C@@](CC#N)(n3cc(-c4ncnc5[nH]ccc45)cn3)C2)CC1 [Example 110]")
"< 7.00"
>>> value_observed("CN(C)/C(=N\\C#N)N1CCN([C@H]2C[C@](CC#N)(n3cc(-c4ncnc5[nH]ccc45)cn3)C2)CC1 [Example 118]")
"7.00 to 7.60"
>>> value_observed("N#CC[C@]1(n2cc(-c3ncnc4[nH]ccc34)cn2)C[C@H](N2CCN(C(=O)c3cc(C(=O)O)nc(C(F)(F)F)n3)CC2)C1 [Example 48]")
"< 7.00"
>>> value_observed("COCc1cc(C(=O)N2CCN([C@H]3C[C@](CC#N)(n4cc(-c5ncnc6[nH]ccc56)cn4)C3)CC2)nc(C(F)(F)F)n1 [Example 60]")
"7.00 to 7.60"
>>> value_observed("CNCc1cc(C(=O)N2CCN([C@H]3C[C@](CC#N)(n4cc(-c5ncnc6[nH]ccc56)cn4)C3)CC2)nc(C(F)(F)F)n1 [Example 50]")
"7.00 to 7.60"
>>> value_observed("CC[C@H](C)NC(=O)N1CCN([C@H]2C[C@@](CC#N)(n3cc(-c4ncnc5[nH]ccc45)cn3)C2)CC1 [Example 106]")
"< 7.00"

---

Listing: pIC50 of selected molecules
# tested target: human JAK1 (a.a. 837-1142) (Homo sapiens)
# Sequence (P23458 849-1154): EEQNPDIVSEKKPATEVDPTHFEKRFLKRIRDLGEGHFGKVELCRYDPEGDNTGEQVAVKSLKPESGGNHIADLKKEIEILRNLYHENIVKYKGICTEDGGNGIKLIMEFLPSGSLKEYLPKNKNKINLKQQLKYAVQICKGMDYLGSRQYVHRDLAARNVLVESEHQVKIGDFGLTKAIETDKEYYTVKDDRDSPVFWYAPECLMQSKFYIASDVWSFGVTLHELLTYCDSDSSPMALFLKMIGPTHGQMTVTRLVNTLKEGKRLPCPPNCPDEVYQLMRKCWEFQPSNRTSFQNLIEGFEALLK
# experimental details: In vitro JAK kinase assay (HTRF, phosphorylation of biotinylated peptide), JAK1
# Format: biochemical
# condition parameters: Table F; 1 mM ATP
pIC50: −log10 of the molar value.
measured endpoint: pIC50

>>> value_observed("N#CC[C@]1(n2cc(-c3ncnc4[nH]ccc34)cn2)C[C@H](N2CCN(C(=O)NC3CCC3)CC2)C1 [Example 99]")
"> 8.00"
>>> value_observed("CC(C)OC(=O)N1CCN([C@H]2C[C@](CC#N)(n3cc(-c4ncnc5[nH]ccc45)cn3)C2)CC1 [Example 120]")
"> 8.00"
>>> value_observed("CC(C)(C)NCc1cc(OC2CCN([C@H]3C[C@](CC#N)(n4cc(-c5ncnc6[nH]ccc56)cn4)C3)CC2)nc(C(F)(F)F)c1 [Example 127]")
"> 8.00"
>>> value_observed("N#CC[C@]1(n2cc(-c3ncnc4[nH]ccc34)cn2)C[C@H](N2CCN(C(=O)c3cc(CN4CCC4)nc(C(F)(F)F)n3)CC2)C1 [Example 49]")
"> 8.00"
>>> value_observed("CC[C@@H](C)NC(=O)N1CCN([C@H]2C[C@](CC#N)(n3cc(-c4ncnc5[nH]ccc45)cn3)C2)CC1 [Example 102]")
"> 8.00"
>>> value_observed("N#CC[C@]1(n2cc(-c3ncnc4[nH]ccc34)cn2)C[C@@H](N2CCN(C(=O)c3cc(C4(N)CCC4)nc(C(F)(F)F)n3)CC2)C1 [Example 62]")
"> 8.00"
>>> value_observed("N#CC[C@]1(n2cc(-c3ncnc4[nH]ccc34)cn2)C[C@H](N2CCC(Oc3cc(CN)nc(C(F)(F)F)n3)CC2)C1 [Example 147]")
"7.60 to 8.00"
>>> value_observed("CN(C)CCCN(C)C(=O)N1CCN([C@H]2C[C@](CC#N)(n3cc(-c4ncnc5[nH]ccc45)cn3)C2)CC1 [Example 82]")
"7.60 to 8.00"
>>> value_observed("N#CC[C@]1(n2cc(-c3ncnc4[nH]ccc34)cn2)C[C@H](N2CCC(Oc3cc(CN4CCOCC4)cc(C(F)(F)F)n3)CC2)C1 [Example 159]")
"> 8.00"
>>> value_observed("N#CC[C@]1(n2cc(-c3ncnc4[nH]ccc34)cn2)C[C@H](N2CCN(C(=O)NC3CC3)CC2)C1 [Example 98]")
"> 8.00"
>>> value_observed("N#CC[C@]1(n2cc(-c3ncnc4[nH]ccc34)cn2)C[C@@H](N2CCC(Oc3cc(CO)cc(C(F)(F)F)n3)CC2)C1 (single isomer, unassigned) [Example 124]")
"7.00 to 7.60"
>>> value_observed("N#CC[C@]1(n2cc(-c3ncnc4[nH]ccc34)cn2)C[C@@H](N2CCN(C(=O)NC3CCCC3)CC2)C1 [Example 109]")
"> 8.00"
>>> value_observed("N#CC[C@]1(n2cc(-c3ncnc4[nH]ccc34)cn2)C[C@H](N2CCC(Oc3cc(CN4CCCC4)nc(C(F)(F)F)n3)CC2)C1 [Example 148]")
"7.60 to 8.00"
>>> value_observed("N#CC[C@]1(n2cc(-c3ncnc4[nH]ccc34)cn2)C[C@H](N2CCN(C(=O)N[C@H]3CC[C@H](O)CC3)CC2)C1 [Example 86]")
"7.60 to 8.00"
>>> value_observed("CC(C)NC(=O)N1CCN([C@H]2C[C@@](CC#N)(n3cc(-c4ncnc5[nH]ccc45)cn3)C2)CC1 [Example 108]")
"7.60 to 8.00"
>>> value_observed("CN(C)Cc1cc(C#N)cc(C(=O)N2CCN([C@H]3C[C@@](CC#N)(n4cc(-c5ncnc6[nH]ccc56)cn4)C3)CC2)c1 [Example 42]")
"> 8.00"
>>> value_observed("CC(C)(O)c1cc(C(=O)N2CCN([C@H]3C[C@](CC#N)(n4cc(-c5ncnc6[nH]ccc56)cn4)C3)CC2)nc(C(F)(F)F)n1 [Example 58]")
"> 8.00"
>>> value_observed("N#CC[C@]1(n2cc(-c3ncnc4[nH]ccc34)cn2)C[C@H](N2CCN(C(=O)NC3CCCC3)CC2)C1 [Example 90]")
"> 8.00"
>>> value_observed("CNC1(c2cc(C(=O)N3CCN([C@H]4C[C@](CC#N)(n5cc(-c6ncnc7[nH]ccc67)cn5)C4)CC3)nc(C(F)(F)F)n2)CCC1 [Example 70]")
"> 8.00"
>>> value_observed("N#CC[C@]1(n2cc(-c3ncnc4[nH]ccc34)cn2)C[C@H](N2CCN(C(=O)c3cc(CN)cc(C(F)(F)F)n3)CC2)C1 [Example 67]")
"> 8.00"
>>> value_observed("N#CC[C@]1(n2cc(-c3ncnc4[nH]ccc34)cn2)C[C@H](N2CCN(C(=O)c3cc(C4(N)CCC4)nc(C(F)(F)F)n3)CC2)C1 [Example 61]")
"> 8.00"
>>> value_observed("CN(C)Cc1cc(OC2CCN([C@H]3C[C@](CC#N)(n4cc(-c5ncnc6[nH]ccc56)cn4)C3)CC2)cc(C(F)F)c1 [Example 140]")
"7.60 to 8.00"
>>> value_observed("N#CC[C@]1(n2cc(-c3ncnc4[nH]ccc34)cn2)C[C@H](N2CCN(C(N)=O)CC2)C1 [Example 95]")
"> 8.00"
>>> value_observed("N#CC[C@]1(n2cc(-c3ncnc4[nH]ccc34)cn2)C[C@H](N2CCC(Oc3cc(CN4CCC[C@H]4CO)cc(C(F)(F)F)n3)CC2)C1 [Example 161]")
"> 8.00"
>>> value_observed("N#CC[C@]1(n2cc(-c3ncnc4[nH]ccc34)cn2)C[C@H](N2CCC(Oc3cc(CN4CC(O)C4)nc(C(F)(F)F)n3)CC2)C1 [Example 144]")
"7.60 to 8.00"
